Listed compounds paired with reported melting point

Please review the entries below; each comes with its answer.
INSERT INTO results (compound, assay_readout, meas_value) VALUES
  ('N#Cc1cccn(-c2ccc(S(=O)(=O)N(CCO)CCO)cc2)c1=O', 'melting point', '226 to 228 °C'),
  ('CC(=O)Nc1ccc(CCC2(c3ccccc3)CC(O)=CC(=O)O2)cc1 (stereo not given)', 'melting point', '155 to 160 °C'),
  ('O=C(Nc1cc(Cl)cc(Cl)c1)c1cc2ccccc2cc1O', 'melting point', '254 to 255 °C');

// next item, melting point requested
# input For the compound O=C(O)Cn1cc(C(=O)O)c(=O)c2ccccc(=O)c21 , what melting point is on record?
# output > 250 °C

###

compounds and their reported melting point

Worked examples follow.
INSERT INTO measurements (compound, meas_value) VALUES
  ('OC1CC=C(c2ccc(Cl)cc2)CC1 (stereo unspecified)', '108 to 112 °C'),
  ('Cc1cc(C)c(C(=O)P(=O)(CC(C)C)C(=O)c2c(C)cc(C)cc2C)c(C)c1', '85 to 86 °C'),
  ('CNC=C(C(=O)C=Cc1ccc(Cl)cc1)C(=O)OC', '114 to 116 °C'),
  ('NC1(CF)CCCNC1=O (stereo unspecified)', '132 °C'),
  ('CCCC(O)c1ccc(C(=O)O)cc1 (stereo unspecified)', '109 to 113 °C'),
  ('N#Cc1n[nH]cc1-c1ccc(Cl)cc1C(=O)c1ccccc1Cl', '183 to 184 °C'),
  ('O=C1NC(=O)C(Cc2ccc(N3CCC(NC[C@H](O)c4csc(C(F)(F)F)n4)CC3)cc2)S1 (stereo partly specified)', '108 to 113 °C'),
  ('C(=Nn1ccnc1N1CCOCC1)c1ccccc1', '59 to 61 °C');

# input Fill blank: measured melting point of the compound COc1ccc2cc(C#N)ccc2n1 is ____.
# output 163 to 165 °C

# input Which measured melting point value corresponds to O=C1NC(=O)C(c2ccccc2)(c2ccccc2)N2CCN(C(=O)OCc3ccccc3)CC12 (stereo unspecified) ?
# output 151 to 152 °C

# input If you can, please state the reported melting point value of O=C(c1ccccc1)c1cccc2c1CCCC2C(=O)O (stereo unspecified) .
# output 164 to 165 °C

###

Examples of compounds with documented melting point follow.

See these solved cases before continuing.
INSERT INTO assay_data (compound, assay_readout, meas_value) VALUES
  ('CCOC(=O)c1cnc2nn(CC)cc2c1O', 'melting point', '197 to 198 °C'),
  ('CCc1cccc(CC)c1N(CCCC(=O)O)C(=O)CCN(C(C)=O)c1c(C)cccc1C', 'melting point', '110 to 111 °C'),
  ('COC(=O)CC(C(=O)OC)C(=O)c1ccccc1OC (centres undefined)', 'melting point', '75 to 76 °C'),
  ('CCOc1nn(-c2ccccn2)cc1CCCOc1cccc(CC(=O)O)c1', 'melting point', '66 to 67 °C');

Read the next record carefully.
# input melting point for COC(=O)C(C(=O)OC)C(=O)C(C)Oc1ccc(Oc2ccc(C(F)(F)F)cc2)cc1 (centres undefined) ?
# output 40 to 44 °C

###

assay.readout: melting point

// known answers, use as guide
INSERT INTO assay_data (compound, assay_readout, meas_value) VALUES
  ('O=C(c1ccc(Cl)cc1)c1ccc(Cl)[nH]1', 'melting point', '210 to 211 °C'),
  ('COc1cc2c(c(Cl)c1Cl)C(=O)C(CCCCl)C2 (stereo unspecified)', 'melting point', '130 to 132 °C'),
  ('CNc1c(Cl)cc(C(=O)NCC2CCN(CCCOC)CC2)c2nccn12', 'melting point', '125 °C'),
  ('Cc1oc(-c2ccccc2)nc1COc1ccc(CN(O)C(N)=O)cc1', 'melting point', '157 to 159 °C'),
  ('CCCCn1c(S)nc2ccccc2c1=O', 'melting point', '167 to 172 °C');

# input Return reported melting point; argument: Cn1c(CNCC(C)(C)O)cc2cc(NC(=O)c3ccc(OCC4CCOC4)cc3)ccc21 (stereo unspecified)
# output 169 °C

Hey, just so you know, these numbers are from a melting point compilation (Tetko et al.; mined from patent text by program, amines drawn as free bases though some values may be those of a salt).
